Reference for the values: the supplement of paper PMC11208160

Kindly supply the reported recombinant UMI read abundance (log10) values for the records listed here.
Experiment Notes: recombinant UMI read abundance after kanamycin selection (control-corrected) (log10(CPM+1)); higher = more efficient recombination; extreme values may be limits of the assay; sequences stand for … in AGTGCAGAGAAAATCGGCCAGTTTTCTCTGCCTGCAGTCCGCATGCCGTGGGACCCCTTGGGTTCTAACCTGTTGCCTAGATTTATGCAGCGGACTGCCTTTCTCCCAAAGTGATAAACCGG…AGGTTGGTTTCACT; site = the 11-nt donor;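 also: IS621 bridge recombinase in Escherichia coli cells against a fixed T5 target plasmid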

Field: example entries. Status: answers known.
AGGCACGCATGGACCGGTTTTCCCGGTAATCCGTATTTGGG (site ATGCACGCTCC) :: 0.0107
CGGAAACCATGGACCGGTTTTCCCGGTAATCCGTATTTGCT (site CGGAATCCTAA) :: 0
CGCCGTACATGGACCGGTTTTCCCGGTAATCCGTATTTGCC (site CGCCGTACTAG) :: 0.256
GCTTTCCCATGGACCGGTTTTCCCGGTAATCCGTATTTGAT (site GCTTGCCCTAT) :: 0.00235

Okay, now this sequence:
Identify the reported recombinant UMI read abundance (log10) for the following entry. AAAAGCACATGGACCGGTTTTCCCGGTAATCCGTATTTGCA (site AAAAGCACTTG)
2.36

----------
Experiment Notes: recombinant UMI read abundance after kanamycin selection (control-corrected) (log10(CPM+1)); higher = more efficient recombination; extreme values may be limits of the assay; sequences stand for … in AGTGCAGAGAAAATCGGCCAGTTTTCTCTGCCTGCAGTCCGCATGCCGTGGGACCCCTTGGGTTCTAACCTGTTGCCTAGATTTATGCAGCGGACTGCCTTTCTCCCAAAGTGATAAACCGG…AGGTTGGTTTCACT; site = the 11-nt donor
Kindly supply the reported recombinant UMI read abundance (log10) values for the records listed here.
Give bare numbers.

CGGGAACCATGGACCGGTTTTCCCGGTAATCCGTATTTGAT (site CGGGAACCTGT) :: 0

Below are 7 sequences. Give each one its recombinant UMI read abundance (log10).
1. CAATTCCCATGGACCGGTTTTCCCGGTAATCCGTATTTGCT (site CAATTCCCTAC)
2. TGACATTCATGGACCGGTTTTCCCGGTAATCCGTATTTGCC (site TGACATTCTGG)
3. AGATCTACATGGACCGGTTTTCCCGGTAATCCGTATTTGTG (site ACATCTACTCA)
4. CTCATCGCATGGACCGGTTTTCCCGGTAATCCGTATTTGCC (site CTCATCGCTGG)
5. TACTTGACATGGACCGGTTTTCCCGGTAATCCGTATTTGCT (site TACTTGCCTAG)
6. CCCTTCTCATGGACCGGTTTTCCCGGTAATCCGTATTTGGC (site CCCTTCTCTCC)
7. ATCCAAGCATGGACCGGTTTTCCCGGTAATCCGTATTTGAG (site ATACAAGCTCT)

0.184
2.22
0.0151
0.346
0
0.455
0.0267

Identify the reported recombinant UMI read abundance (log10) for the following entry. CCCACGCCATGGACCGGTTTTCCCGGTAATCCGTATTTGTA (site TCCACGCCTTA)
0.0141

----------
Experiment Notes: recombinant UMI read abundance after kanamycin selection (control-corrected) (log10(CPM+1)); higher = more efficient recombination; extreme values may be limits of the assay; sequences stand for … in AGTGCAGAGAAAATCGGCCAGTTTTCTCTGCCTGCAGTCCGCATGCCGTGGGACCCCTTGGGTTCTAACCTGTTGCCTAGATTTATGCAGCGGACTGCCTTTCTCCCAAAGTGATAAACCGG…AGGTTGGTTTCACT; site = the 11-nt donor
Please enter True where recombinant UMI read abundance (log10) is greater than or equal to 0.4, and False where it is lower.

TTTGCGGCATGGACCGGTTTTCCCGGTAATCCGTATTTGCT (site TTTGCGGCTAA) :: False

I'd appreciate it if you could say whether CAGTTAGCATGGACCGGTTTTCCCGGTAATCCGTATTTGTG (site CCGTTAGCTCA) has recombinant UMI read abundance (log10) at least equal to 0.4.
False

I'd appreciate it if you could say whether TCTAAAGCATGGACCGGTTTTCCCGGTAATCCGTATTTGAT (site TCTAAAGCTAT) has recombinant UMI read abundance (log10) at least equal to 0.4.
False

I'd appreciate it if you could say whether CAAGTCACATGGACCGGTTTTCCCGGTAATCCGTATTTGTT (site CAAGTCACTAA) has recombinant UMI read abundance (log10) at least equal to 0.4.
True

I'd appreciate it if you could say whether GTTCGAGCATGGACCGGTTTTCCCGGTAATCCGTATTTGTA (site GTTCGAGCTTT) has recombinant UMI read abundance (log10) at least equal to 0.4.
True
